# assayTarget: T1, human sodium-dependent phosphate transporter 2B (NaPi2b) (human, UniProt O95436 1-690)
# T1 construct: UniProt ID is given as 095436 [sic]; also called hNaPi2b; Hu NaPi2b
# T1 sequence: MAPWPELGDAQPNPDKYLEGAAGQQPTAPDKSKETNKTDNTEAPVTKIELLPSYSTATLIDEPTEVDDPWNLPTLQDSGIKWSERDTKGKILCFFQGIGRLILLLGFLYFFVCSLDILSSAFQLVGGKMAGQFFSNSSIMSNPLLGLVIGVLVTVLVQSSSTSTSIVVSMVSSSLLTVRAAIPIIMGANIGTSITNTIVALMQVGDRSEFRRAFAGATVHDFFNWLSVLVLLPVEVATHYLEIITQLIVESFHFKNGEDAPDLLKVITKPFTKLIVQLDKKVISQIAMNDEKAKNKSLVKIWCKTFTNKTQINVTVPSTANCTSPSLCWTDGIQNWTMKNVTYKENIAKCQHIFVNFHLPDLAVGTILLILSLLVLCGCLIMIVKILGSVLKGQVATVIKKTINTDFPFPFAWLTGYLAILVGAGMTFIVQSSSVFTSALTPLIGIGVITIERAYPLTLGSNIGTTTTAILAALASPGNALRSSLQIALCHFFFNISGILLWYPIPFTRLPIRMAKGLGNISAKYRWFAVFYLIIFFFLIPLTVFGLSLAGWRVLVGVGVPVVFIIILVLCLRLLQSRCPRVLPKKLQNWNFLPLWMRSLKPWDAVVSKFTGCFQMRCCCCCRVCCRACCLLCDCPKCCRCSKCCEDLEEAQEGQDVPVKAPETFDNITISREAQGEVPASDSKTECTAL
# testDetails: flow cytometry, IGROV-1 cells (endogenous NaPi2b)
# Set-up: unit not given here
Reported Bmax values follow for various binders

binder	Bmax
v23855 (parental mouse-human chimeric anti-NaPi2b antibody) (antibody, human IgG1, kappa, V domains shown, IgG1/kappa full-size antibody; also called parental chimeric) VH: QAYLQQSGAELVRPGASVKMSCKASGFTFTSYNVHWVKQTPRQGLEWIAAISPGNGDLSYNQRFKDKATLTVDRSSSTAYMQLSGLTSEDSAVYFCARGRTGMGAVDYWGQGTSVTVSS VL: DVQMTQTASSLSASLGDRVTISCRASQDVYSYLNWYQQKPHGTVKLLIYYTSRLQSGVPSRFTGSGSGTDYSLTISNLEPEDIATYYCQQYNIFPWTFGGGTKLEIKR	43700
v29455 (H2L2) (antibody, human IgG1, kappa, V domains shown, Humanized IgG1/kappa) VH: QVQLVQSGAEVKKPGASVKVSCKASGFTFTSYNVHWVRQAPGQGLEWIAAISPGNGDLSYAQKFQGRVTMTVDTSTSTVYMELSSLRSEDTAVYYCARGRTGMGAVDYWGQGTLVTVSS VL: DVQMTQSPSSLSASVGDRVTITCRASQDVYSYLNWYQQKPGKAVKLLIYYTSRLQSGVPSRFSGSGSGTDYTLTISSLQPEDFATYYCQQYNIFPWTFGQGTKLEIKR	41900
v29460 (H1L1) (antibody, human IgG1, kappa, V domains shown, Humanized IgG1/kappa) VH: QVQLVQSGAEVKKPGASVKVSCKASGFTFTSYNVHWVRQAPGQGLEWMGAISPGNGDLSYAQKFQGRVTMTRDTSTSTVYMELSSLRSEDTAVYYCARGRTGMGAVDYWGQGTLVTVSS VL: DIQMTQSPSSLSASVGDRVTITCRASQDVYSYLNWYQQKPGKAPKLLIYYTSRLQSGVPSRFSGSGSGTDFTLTISSLQPEDFATYYCQQYNIFPWTFGQGTKLEIKR	40100
v29459 (H2L1) (antibody, human IgG1, kappa, V domains shown, Humanized IgG1/kappa) VH: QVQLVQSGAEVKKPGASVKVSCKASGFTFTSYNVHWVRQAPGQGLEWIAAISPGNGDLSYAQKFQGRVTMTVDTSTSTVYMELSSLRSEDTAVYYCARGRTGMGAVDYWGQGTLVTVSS VL: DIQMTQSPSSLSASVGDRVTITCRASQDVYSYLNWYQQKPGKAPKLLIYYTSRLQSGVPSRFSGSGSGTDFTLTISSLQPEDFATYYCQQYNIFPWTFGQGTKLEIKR	40900
